# Test system: Human immunodeficiency virus 1
# run description: Binding affinity to HIV1 recombinant gp41 at 20 ug/ml

compound: O=C(O)Cn1c2c(c3c1=C(c1ccc(O)c(O)c1)C(=O)c1cc(O)c(OS(=O)(=O)O)cc1-3)-c1cc(O)c(O)cc1C(=O)C=2c1ccc(O)c(O)c1 [BACULIFERIN M]
unit label: pg/mm2
RU: 380
//
compound: O=C(O)Cn1c2c(c3c1=C(c1ccc(O)c(O)c1)C(=O)c1cc(O)c(O)cc1-3)-c1cc(O)c(O)cc1C(=O)C=2c1ccc(O)c(O)c1 [BACULIFERIN L]
unit label: pg/mm2
RU: 469
//
compound: O=C(O)CN1C(=O)C(c2ccc(O)c(O)c2)=C2C1=C(c1ccc(O)c(O)c1)C(=O)c1cc(O)c(O)cc12 [BACULIFERIN N]
unit label: pg/mm2
RU: 953

----------
# Tested on: Human immunodeficiency virus 1
# run description: Binding affinity to HIV1 recombinant gp41 at 20 ug/ml
Each entry below carries its recorded RU.

chemical string: O=C1C(c2ccc(O)c(O)c2)=c2c(c3c(n2CCc2ccc(O)cc2)=C(c2ccc(O)c(OS(=O)(=O)O)c2)C(=O)c2cc(O)c(OS(=O)(=O)O)cc2-3)-c2cc(OS(=O)(=O)O)c(O)cc21
target of assay: Human immunodeficiency virus 1
unit label: pg/mm2
RU: 76.2
--
chemical string: O=C1C(c2ccc(O)c(O)c2)=c2c(c3c(n2CCc2ccc(O)cc2)=C(c2ccc(O)c(OS(=O)(=O)O)c2)C(=O)c2cc(O)c(OS(=O)(=O)O)cc2-3)-c2cc(O)c(O)cc21
target of assay: Human immunodeficiency virus 1
unit label: pg/mm2
RU: 109
--
chemical string: O=C1C(c2ccc(O)c(O)c2)=c2c(c3c(n2CCc2ccc(O)cc2)=C(c2ccc(O)c(OS(=O)(=O)O)c2)C(=O)c2cc(O)c(O)cc2-3)-c2cc(O)c(O)cc21
target of assay: Human immunodeficiency virus 1
unit label: pg/mm2
RU: 12.9
--
chemical string: O=C1C(c2ccc(O)c(OS(=O)(=O)O)c2)=c2c(c3c(n2CCc2ccc(O)cc2)=C(c2ccc(O)c(O)c2)C(=O)c2cc(O)c(OS(=O)(=O)O)cc2-3)-c2cc(O)c(O)cc21
target of assay: Human immunodeficiency virus 1
unit label: pg/mm2
RU: 109
--
chemical string: O=C1C(c2ccc(O)c(O)c2)=C2C(=C(c3ccc(OS(=O)(=O)O)c(O)c3)C(=O)N2CCc2ccc(O)cc2)c2cc(O)c(O)cc21
target of assay: Human immunodeficiency virus 1
unit label: pg/mm2
RU: 1350

----------
# Test system: Human immunodeficiency virus 1
# run description: Binding affinity to HIV1 recombinant gp41 at 20 ug/ml
Each entry below carries its recorded RU.

chemical string: O=C1C(c2ccc(O)c(OS(=O)(=O)O)c2)=c2c(c3c(n2CCc2ccc(O)cc2)=C(c2ccc(O)c(OS(=O)(=O)O)c2)C(=O)c2cc(O)c(OS(=O)(=O)O)cc2-3)-c2cc(O)c(O)cc21
RU / pg/mm2: 125

chemical string: O=C1C(c2ccc(O)c(OS(=O)(=O)O)c2)=c2c(c3c(n2CCc2ccc(O)cc2)=C(c2ccc(O)c(OS(=O)(=O)O)c2)C(=O)c2cc(O)c(O)cc2-3)-c2cc(O)c(O)cc21
RU / pg/mm2: 116

chemical string: O=C1C(c2ccc(O)c(O)c2)=C2C(=C(c3ccc(O)c(O)c3)C(=O)N2CCc2ccc(OS(=O)(=O)O)cc2)c2cc(O)c(O)cc21
RU / pg/mm2: 1490
